Origin of measurements: patent US20210087281A1

Field: phospho-MET ELISA EC50, MLP29 cells. Provide a value for each of the binders that follow.
# TARGET OF ASSAY: native mouse MET on living cells (mouse, UniProt P16056 25-1379)
# ASSAY OVERVIEW: cell-based or functional assay
Give bare numbers, in pM.

Illustrative cases are given below, each with its answer.
71G12 chimeric llama-human IgG1 mAb (antibody, V domains shown, llama VH on human IgG1 CH1-CH2-CH3, llama VL on human kappa CL) VH: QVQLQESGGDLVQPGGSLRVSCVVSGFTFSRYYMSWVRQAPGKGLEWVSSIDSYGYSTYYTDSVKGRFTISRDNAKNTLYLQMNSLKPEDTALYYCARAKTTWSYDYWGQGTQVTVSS VL: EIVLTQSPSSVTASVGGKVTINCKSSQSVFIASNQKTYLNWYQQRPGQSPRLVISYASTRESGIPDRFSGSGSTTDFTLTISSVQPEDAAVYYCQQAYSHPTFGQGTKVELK | 2010
71A3 chimeric llama-human IgG1 mAb (antibody, V domains shown, llama VH on human IgG1 CH1-CH2-CH3, llama VL on human lambda CL) VH: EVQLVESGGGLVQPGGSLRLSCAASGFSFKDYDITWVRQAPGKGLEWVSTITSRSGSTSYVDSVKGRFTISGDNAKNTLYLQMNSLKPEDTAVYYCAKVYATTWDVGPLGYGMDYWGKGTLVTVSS VL: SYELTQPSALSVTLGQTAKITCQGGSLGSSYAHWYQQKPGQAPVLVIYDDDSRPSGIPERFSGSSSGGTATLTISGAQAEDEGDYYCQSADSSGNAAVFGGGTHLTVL | 260

Below: the item to evaluate.
Query block: Tell me the measured phospho-MET ELISA EC50, MLP29 cells of 71D6 chimeric llama-human IgG1 mAb (antibody, V domains shown, llama VH on human IgG1 CH1-CH2-CH3, llama VL on human lambda CL) VH: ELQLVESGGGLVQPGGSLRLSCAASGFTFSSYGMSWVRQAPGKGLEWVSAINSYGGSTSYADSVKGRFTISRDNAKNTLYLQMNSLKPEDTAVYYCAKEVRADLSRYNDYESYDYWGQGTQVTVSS VL: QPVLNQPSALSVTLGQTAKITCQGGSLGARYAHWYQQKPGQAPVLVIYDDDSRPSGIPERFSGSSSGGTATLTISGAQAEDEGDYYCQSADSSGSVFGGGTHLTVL , please.
Result block: 210
